# pIC50 per entry
EXPERIMENTAL_TARGET: PCSK9 (Homo sapiens)
Construct: biotin (biotinylated)
Sequence (Q8NBP7 153-692): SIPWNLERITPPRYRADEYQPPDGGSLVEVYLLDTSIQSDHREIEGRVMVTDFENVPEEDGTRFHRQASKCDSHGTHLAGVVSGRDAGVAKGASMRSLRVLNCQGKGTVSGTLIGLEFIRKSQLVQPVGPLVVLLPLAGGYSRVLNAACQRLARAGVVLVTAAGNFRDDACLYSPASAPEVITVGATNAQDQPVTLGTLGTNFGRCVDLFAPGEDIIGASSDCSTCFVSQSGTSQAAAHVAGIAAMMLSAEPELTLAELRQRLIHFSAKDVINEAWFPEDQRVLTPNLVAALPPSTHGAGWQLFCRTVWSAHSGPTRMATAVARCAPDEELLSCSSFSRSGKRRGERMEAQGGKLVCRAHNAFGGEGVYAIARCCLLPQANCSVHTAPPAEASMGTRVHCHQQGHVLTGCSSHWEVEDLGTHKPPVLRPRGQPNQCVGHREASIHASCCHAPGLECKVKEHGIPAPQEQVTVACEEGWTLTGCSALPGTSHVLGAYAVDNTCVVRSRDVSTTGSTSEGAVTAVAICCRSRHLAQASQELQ
TEST_NAME: PCSK9 Alexa FRET Plus assay (displacement of AlexaFluor647-tagged cyclic peptide Reagent B)
Assay type: binding
CONDITION: 0.5 nM PCSK9, 960 nM AF cyclic peptide Reagent B
pIC50: −log10 of the molar value. *1 amine or outer side, *2 acyl side, *3 side chain or, on linkers, in order; H or OH if unused. Where a SMILES comes first, the peptide text is derived from it. Bridges are numbered along the chain shown (N, C = ends). [ ]: non-standard residue; d: D form. The star is where a group is joined. ξ: configuration not given here. Phe(3-CF3) = N[C@@H](Cc1cccc(C(F)(F)F)c1)C(=O)O; Trp(7-aza) = N[C@@H](Cc1c[nH]c2ncccc12)C(=O)O; pY = N[C@@H](Cc1ccc(OP(=O)(O)O)cc1)C(=O)O; mXylylene = c1cc(C[*:1])cc(C[*:2])c1; pS = N[C@@H](COP(=O)(O)O)C(=O)O; aThr = C[C@H](O)[C@H](N)C(=O)O; Tle = CC(C)(C)[C@H](N)C(=O)O; αMeV = CC(C)[C@](C)(N)C(=O)O; αMeS = C[C@](N)(CO)C(=O)O; ξαMeS = CC(N)(CO)C(=O)O; Aib = CC(C)(N)C(=O)O; Mpa = O=C(O)CCS; X5 = COCC*
ASSAY_ENDPOINT: pIC50

>>> measured_value("CC(C)[C@]1(C)NC(=O)[C@H](Cc2ccc(O)cc2)NC(=O)[C@H](C)NC(=O)C(C)(C)NC(=O)[C@H](Cc2c[nH]c3ncccc23)NC(=O)[C@H]([C@@H](C)O)NC(=O)[C@@H]2CCCN2C(=O)[C@H](Cc2ccc(O)cc2)NC(=O)[C@H](C(C)(C)C)NC(=O)CCSCc2cccc(c2)CSC[C@@H](C(N)=O)NC(=O)[C@H](COP(=O)(O)O)NC1=O [Compound 016] ([Mpa][Tle]YPT[Trp(7-aza)][Aib]AY[αMeV][pS]C-NH2; linker 1-12 via mXylylene)")
"7.00 to 9.00"
>>> measured_value("COCCOCC1(C)NC(=O)[C@H](Cc2c[nH]c3ncccc23)NC(=O)[C@H]([C@@H](C)O)NC(=O)[C@@H]2CCCN2C(=O)[C@H](Cc2ccc(O)cc2)NC(=O)[C@H](C(C)(C)C)NC(=O)[C@@H](NC(C)=O)CSCc2cccc(c2)CSC[C@H](C(N)=O)NC(=O)[C@H]([C@@H](C)O)NC(=O)[C@](C)(C(C)C)NC(=O)[C@H](Cc2ccc(O)cc2)NC(=O)[C@H](C)NC1=O (stereo partly drawn) [Compound 036] (Ac-C[Tle]YPT[Trp(7-aza)][ξαMeS](X5)AY[αMeV]T[dC]-NH2; linker 1-12 via mXylylene)")
"7.00 to 9.00"
>>> measured_value("CC(=O)N[C@H]1CSCc2cccc(c2)CSC[C@H](C(N)=O)NC(=O)[C@H]([C@H](C)O)NC(=O)[C@](C)(C(C)C)NC(=O)[C@H](Cc2ccc(O)cc2)NC(=O)[C@H](C)NC(=O)C(C)(C)NC(=O)[C@H](Cc2c[nH]c3ncccc23)NC(=O)[C@H]([C@@H](C)O)NC(=O)[C@@H]2CCCN2C(=O)[C@H](Cc2cccc(C(F)(F)F)c2)NC(=O)[C@H](C(C)(C)C)NC1=O [Compound 041] (Ac-C[Tle][Phe(3-CF3)]PT[Trp(7-aza)][Aib]AY[αMeV][aThr][dC]-NH2; linker 1-12 via mXylylene)")
"5.30 to 6.30"
>>> measured_value("CC(C)[C@](C)(NC(=O)[C@H](Cc1ccc(O)cc1)NC(=O)[C@H](C)NC(=O)C(C)(C)NC(=O)[C@H](Cc1c[nH]c2ncccc12)NC(=O)[C@@H](NC(=O)[C@@H]1CCCN1C(=O)[C@@H]1Cc2ccc(O)c(c2)CCCC[C@H](N)C(=O)N[C@@H](C(C)(C)C)C(=O)N1)[C@@H](C)O)C(N)=O [Compound 032]")
"7.00 to 9.00"
>>> measured_value("CC(=O)N[C@H]1CSCc2cccc(c2)CSC[C@H](C(N)=O)NC(=O)[C@H]([C@@H](C)O)NC(=O)[C@](C)(C(C)C)NC(=O)[C@H](Cc2ccc(O)cc2)NC(=O)[C@H](C)NC(=O)[C@](C)(CO)NC(=O)[C@H](Cc2c[nH]c3ncccc23)NC(=O)[C@H]([C@@H](C)O)NC(=O)[C@@H]2CCCN2C(=O)[C@H](Cc2ccc(O)cc2)NC(=O)[C@H](C(C)(C)C)NC1=O [Compound 031] (Ac-C[Tle]YPT[Trp(7-aza)][αMeS]AY[αMeV]T[dC]-NH2; linker 1-12 via mXylylene)")
"7.00 to 9.00"
>>> measured_value("CC(=O)N[C@H]1CSCc2cccc(c2)CSC[C@H](C(N)=O)NC(=O)[C@H]([C@H](C)O)NC(=O)[C@](C)(C(C)C)NC(=O)[C@H](Cc2ccc(OP(=O)(O)O)cc2)NC(=O)[C@H](C)NC(=O)C(C)(C)NC(=O)[C@H](Cc2c[nH]c3ncccc23)NC(=O)[C@H]([C@@H](C)O)NC(=O)[C@@H]2CCCN2C(=O)[C@H](Cc2ccc(O)cc2)NC(=O)[C@H](C(C)(C)C)NC1=O [Compound 039] (Ac-C[Tle]YPT[Trp(7-aza)][Aib]A[pY][αMeV][aThr][dC]-NH2; linker 1-12 via mXylylene)")
"7.00 to 9.00"

Reference for the values: patent US11505575B2
